- Test system: K-562 (human chronic myeloid leukaemia)
- test-summary: MTT cytotoxicity assay, K-562
- Format: cell-based
- experimental-conditions: Homo sapiens, K562; MTT, 72 h exposure, three independent experiments; read-out: Cytotoxic activity IC50 (95% CI) K-562
property-measured: pIC50
The read-out pIC50 is expressed as -log10 of concentration in moles per litre.

Quick one: pIC50 for [N-]=[N+]=NCC1CC2=C(O1)c1ccccc1C(=O)C2=O (stereo not drawn) ?
6.01

For COc1cccc2c1C(=O)C(NCc1cn(CC3CC4=C(OC3(C)C)c3ccccc3C(=O)C4=O)nn1)=CC2=O (stereo not drawn) [Compound 21c] then?
5.28

Try this compound too: CC1(C)OC2=C(CC1Cn1cc(CNC3=CC(=O)c4cc5ccccc5cc4C3=O)nn1)C(=O)C(=O)c1ccccc12 (stereo not drawn) [Compound 21e]
5.43

Next up: CC1(C)OC2=C(CC1Cn1cc(CNC3=CC(=O)c4cccc(OCc5ccccc5)c4C3=O)nn1)C(=O)C(=O)c1ccccc12 (stereo not drawn) [Compound 21d]
5.00

And what about the compound CC1(C)OC2=C(C(=O)C(=O)c3ccccc32)C1n1cc(CNC2=CC(=O)c3c(O)cccc3C2=O)nn1 (stereo not drawn) [Compound 19b] ?
5.50

Request: O=C1C(=O)c2ccccc2C2=C1CC(Cn1cc(CNC3=CC(=O)c4c(O)cccc4C3=O)nn1)O2 (stereo not drawn) [Compound 20b]
4.89

Repeat for the following compound: O=C1C(=O)c2ccccc2C2=C1CC(Cn1cc(CNC3=CC(=O)c4c(I)cccc4C3=O)nn1)O2 (stereo not drawn) [Compound 20a]
5.25

Thanks! And CC1(C)OC2=C(C(=O)C(=O)c3ccccc32)C1N=[N+]=[N-] (stereo not drawn) ?
5.85

Another compound to check: O=C1C(=O)c2ccccc2C2=C1CC(Cn1cc(CNC3=CC(=O)c4cccc(OCc5ccccc5)c4C3=O)nn1)O2 (stereo not drawn) [Compound 20d]
4.98

Consider next the compound COc1cccc2c1C(=O)C(NCc1cn(C3C4=C(OC3(C)C)c3ccccc3C(=O)C4=O)nn1)=CC2=O (stereo not drawn) [Compound 19c] in the same way.
5.51

Now consider CC1(C)OC2=C(C(=O)C(=O)c3ccccc32)C1n1cc(CNC2=CC(=O)c3cccc(OCc4ccccc4)c3C2=O)nn1 (stereo not drawn) [Compound 19d] and answer again.
5.98

Try this compound too: COc1cccc2c1C(=O)c1c(O)c3c(c(O)c1C2=O)C[C@@](O)(C(=O)CO)C[C@@H]3O[C@H]1C[C@H](N)[C@H](O)[C@H](C)O1 [DOXO, doxorubicin, reference compound]
6.04

// query: CC1(C)OC2=C(CC1Cn1cc(CNC3=CC(=O)c4c(I)cccc4C3=O)nn1)C(=O)C(=O)c1ccccc12 (stereo not drawn) [Compound 21a]
5.30
